Numbers sourced from patent US20240368092A1.

STUDY SYSTEM: UniProtKB Q99572
MEASUREMENT PROTOCOL: human P2X7 channel assay by automated patch-clamp (QPatch 16X)
CONDITION SUMMARY: HEK-293 cells expressing P2X7; current evoked by 100 microM BzATP; whole-cell, held at -80 mV; read-out: human Q-Patch (activity range)
pIC50: −log10 of the molar value.
MEASUREMENT NAME: pIC50

Consider the following illustrative entries.
# MOLECULE, MEASUREMENT NAME, RESULT
records = [
    ("Cn1nc(Cc2ccc(F)cc2)n(Cc2cc(-c3ncc(F)cn3)ccc2Cl)c1=O [Example 29]", "pIC50", "5.00 to 6.00"),
    ("O=c1n(Cc2ccccc2)nc(Cc2c(F)cccc2Cl)n1CC1CCC(F)(F)CC1 [Example 50]", "pIC50", "> 8.00"),
]

Supply recorded pIC50 for Cn1nc(Cc2ccccc2Cl)n(CC2CCC(F)(F)CC2)c1=O [Example 42] here.
7.00 to 8.00

---

STUDY SYSTEM: humanP2X7 (Homo sapiens, UniProt Q99572)
Sequence (Q99572 whole entry): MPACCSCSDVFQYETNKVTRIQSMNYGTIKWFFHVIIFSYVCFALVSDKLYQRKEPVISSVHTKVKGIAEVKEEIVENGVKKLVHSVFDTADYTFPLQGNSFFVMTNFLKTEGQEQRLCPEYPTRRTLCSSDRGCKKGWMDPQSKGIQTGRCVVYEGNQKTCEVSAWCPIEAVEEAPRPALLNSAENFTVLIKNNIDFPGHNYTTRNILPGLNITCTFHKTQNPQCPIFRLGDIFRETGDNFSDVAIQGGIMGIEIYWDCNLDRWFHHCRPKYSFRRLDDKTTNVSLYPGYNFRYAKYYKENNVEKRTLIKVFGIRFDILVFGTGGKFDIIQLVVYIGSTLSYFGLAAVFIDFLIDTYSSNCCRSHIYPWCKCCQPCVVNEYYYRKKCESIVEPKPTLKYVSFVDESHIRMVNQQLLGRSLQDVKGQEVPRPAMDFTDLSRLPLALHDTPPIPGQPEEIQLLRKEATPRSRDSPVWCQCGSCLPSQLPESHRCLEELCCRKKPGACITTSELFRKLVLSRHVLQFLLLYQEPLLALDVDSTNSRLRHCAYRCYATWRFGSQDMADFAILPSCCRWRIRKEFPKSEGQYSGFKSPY
MEASUREMENT PROTOCOL: P2X7 channel calcium-influx assay (Fluo-8, FLIPR TETRA), human P2X7
CONDITION SUMMARY: HEK-293 cells stably transfected with P2X7; Bz-ATP at EC80; low divalent cation buffer; read-out: humanP2X7 (activity range)
Measured IC50, listed per entry.

# COMPOUND, IC50
measured = [
    ("Cn1nc(Cc2ccc(F)cc2Cl)n(Cc2ccc(F)cc2)c1=O", "1000 to 10000 nM"),
]

Supply recorded IC50 for O=c1n(CC2CC2)nc(Cc2c(F)cccc2Cl)n1CC1CCC(C(F)(F)F)CC1 (stereo not drawn) here.
< 200 nM

Supply recorded IC50 for Cn1nc(Cc2ccccc2F)n(CCC2CCC(C)(C)CC2)c1=O here.
1000 to 10000 nM

Supply recorded IC50 for Cn1nc(Cc2ccc(F)cc2Cl)n(CCC2CCC(F)(F)CC2)c1=O here.
200 to 1000 nM

Supply recorded IC50 for Cn1nc(Cc2c(F)cccc2Cl)n(CCC2CCC(F)(F)CC2)c1=O here.
< 200 nM

Supply recorded IC50 for CCn1nc(CC2CCCCCC2)n(Cc2c(F)cccc2Cl)c1=O here.
200 to 1000 nM

Supply recorded IC50 for CCn1nc(Cc2c(F)cccc2Cl)n(CC2CCC(F)(F)CC2)c1=O here.
< 200 nM

Supply recorded IC50 for Cn1nc(Cc2c(F)cccc2Cl)n(CCO)c1=O here.
10000 to 30000 nM

Supply recorded IC50 for Cn1nc(CC2CCC(F)(F)CC2)n(Cc2c(F)cccc2Cl)c1=O here.
200 to 1000 nM

Supply recorded IC50 for Cn1nc(Cc2ccccc2F)n(CC2CCC(F)(F)CC2)c1=O here.
200 to 1000 nM

Supply recorded IC50 for Cn1nc(Cc2ccccc2F)n(CC2CCCCC2(C)C)c1=O (stereo not drawn) here.
1000 to 10000 nM

Supply recorded IC50 for Cn1nc(Cc2ccccc2C(F)(F)F)n(CC2CCC(F)(F)CC2)c1=O here.
< 200 nM

Supply recorded IC50 for O=c1n(CC(F)F)nc(Cc2c(F)cccc2Cl)n1CC1CCC(F)(F)CC1 here.
< 200 nM
